Reference for the values: paper PMC4072508

# Assayed Target: Bcl-xL, Q07817
# Sequence (Q07817 1-209): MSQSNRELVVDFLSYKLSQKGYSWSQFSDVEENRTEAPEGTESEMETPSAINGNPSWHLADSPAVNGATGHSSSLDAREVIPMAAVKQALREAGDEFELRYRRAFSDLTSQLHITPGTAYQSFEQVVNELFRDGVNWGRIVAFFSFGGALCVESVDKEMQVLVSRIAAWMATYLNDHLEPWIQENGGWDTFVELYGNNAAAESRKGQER
# Assay Remarks: peptide SPOT array, c-Myc-tagged receptor at 1 uM or 100 nM, anti-c-Myc-Cy3
Readings of SPOT signal as a fraction of Bim BH3's signal on the same receptor and array for the listed binders
Answer field: number only, no words.

Please review the following examples before continuing.
> print(dat)
                                binder  result.value
1  QEQEQHVPFDIHTYLDQLVSRFPQLN [NCAPH2]          0.06
2    LFWTPLLVVLLAGLLDTEAQQTTLHP [SGCA]          0.06
3   NKQLRKETESLRKILLEAQKKAKVKI [SCLT1]          0.31
4  YEHLRQFCLELNGLAVKLQSECHPDT [MOBKL3]          0.03
5    TDENKKVGLALKDLLKQYSDRLECCE [NUB1]          0.03

[Q] SPOT signal as a fraction of Bim BH3's signal on the same receptor and array for LALLAQPSHLDRQVARSVFGHICSHL [MYBBP1A] ?
[A] 0.68

[Q] Same question for GPGTLECAELLLRFGARVDGRSEEEE [ASB10] please.
[A] 0.03
